// provenance: ChEMBL document CHEMBL1125844

Test target: Human immunodeficiency virus type 1 reverse transcriptase (Human immunodeficiency virus 1, UniProt Q72547)
Run description: In vitro inhibitory activity against human immunodeficiency virus type 1 (HIV-1) reverse transcriptase (RT)
Assay metric: pIC50
The read-out pIC50 is expressed as -log10 of concentration in moles per litre.

Request: pIC50 lookup needed for `CCN1c2cc(Cl)ccc2N(C)C(=O)c2cccnc21` , thanks.
Result: 6.77

Request: pIC50 lookup needed for `CCCCN1c2ccccc2N(C)C(=O)c2cccnc21` , thanks.
Result: 6.00

Request: pIC50 lookup needed for `CCN1c2nc(C)c(C)cc2NC(=O)c2cccnc21` , thanks.
Result: 6.39

Request: pIC50 lookup needed for `CCN1c2ncccc2C(=O)N(C)c2cc(C)c(C)nc21` , thanks.
Result: 6.62

Request: pIC50 lookup needed for `CCCN1c2ccccc2N(C)C(=O)c2cccnc21` , thanks.
Result: 6.64

Request: pIC50 lookup needed for `CCN1c2cc([N+](=O)[O-])ccc2N(C)C(=O)c2cccnc21` , thanks.
Result: 6.40

Request: pIC50 lookup needed for `CC(C)N1c2ncccc2NC(=O)c2cccnc21` , thanks.
Result: 6.23

Request: pIC50 lookup needed for `CSCN1c2ncccc2C(=O)N(C)c2cccnc21` , thanks.
Result: 6.07

Request: pIC50 lookup needed for `CCCN1c2ncccc2C(=O)N(C)c2cccnc21` , thanks.
Result: 6.35

Request: pIC50 lookup needed for `O=C1Nc2c(CO)ccnc2N(C2CC2)c2ncccc21` , thanks.
Result: 5.52

Request: pIC50 lookup needed for `CC(=O)N1c2ncccc2C(=O)N(C)c2cccnc21` , thanks.
Result: 4.82

Request: pIC50 lookup needed for `CCN1c2ncccc2C(=O)N(C)c2cc(Cl)c(N)nc21` , thanks.
Result: 6.07

Request: pIC50 lookup needed for `CCN1c2ccc(C(=O)OC)cc2N(C)C(=O)c2cccnc21` , thanks.
Result: 5.96

Request: pIC50 lookup needed for `CCN1C(=O)c2cccnc2N(CC)c2ccccc21` , thanks.
Result: 6.42

Request: pIC50 lookup needed for `CCN1c2ccc(C)cc2N(C)C(=O)c2cccnc21` , thanks.
Result: 6.72

Request: pIC50 lookup needed for `CCN1c2cc(N)ccc2N(C)C(=O)c2cccnc21` , thanks.
Result: 5.35

Request: pIC50 lookup needed for `CN1C(=O)c2cccnc2N(Cc2ccccc2)c2ccccc21` , thanks.
Result: 5.05

Request: pIC50 lookup needed for `CN1C(=O)c2cccnc2N(C(C)(C)C)c2ncccc21` , thanks.
Result: 4.96

Request: pIC50 lookup needed for `CCN1c2cc([N+](=O)[O-])ccc2N(C)C(=O)c2cc(Br)cnc21` , thanks.
Result: 6.05

Request: pIC50 lookup needed for `CCN1c2ccc(C)c(C)c2N(C)C(=O)c2cccnc21` , thanks.
Result: 7.44

Request: pIC50 lookup needed for `C=CCN1c2ncccc2C(=O)N(C)c2cccnc21` , thanks.
Result: 6.07

Request: pIC50 lookup needed for `C=CCN1C(=O)c2cccnc2Nc2ccccc21` , thanks.
Result: 5.85

Request: pIC50 lookup needed for `CCN1c2ccccc2N(C)C(=O)c2cc(Cl)cnc21` , thanks.
Result: 5.12

Request: pIC50 lookup needed for `CCN1c2ccc(Cl)cc2N(C)C(=O)c2cccnc21` , thanks.
Result: 6.77

Request: pIC50 lookup needed for `CCN1c2ccc(C)cc2C(=O)N(C)c2cccnc21` , thanks.
Result: 6.24

Request: pIC50 lookup needed for `CCN1c2ncccc2NC(=O)c2cccnc21` , thanks.
Result: 6.36

Request: pIC50 lookup needed for `CCN1c2ccccc2N(C)C(=O)c2cccnc21` , thanks.
Result: 6.46

Request: pIC50 lookup needed for `CCN1C(=O)c2ccccc2N(CC)c2ncccc21` , thanks.
Result: 6.16
